Item-by-item account of cell viability
# Test system: NOMO1
# TEST SUMMARY: cell viability relative to DMSO control; higher = less cytotoxic
# TEST CONDITIONS: HPLM + 10% dialyzed FBS; 48 h; 1.71 µM
The reply should be a number in %, with the unit left off.

What does the data say about its cell viability? Entry: "NC(CO)(CO)CCc1ccc(Sc2cccc(OCc3ccccc3)c2)cc1Cl"
121

Likewise for "CC1=C(C=CC=C1)N2\C(=N/C3=C(C(=CC=C3)C)C2=O)C[N]4N=CC5=C4N=CN=C5N" ?
44.3

Likewise for "[NH2][Pt]([NH2])([Cl])[Cl]" ?
99.4

Likewise for "CC(C)n1nc(-c2ccc3oc(N)nc3c2)c2c(N)ncnc21" ?
55

----------
# System: P12-Ichikawa
# TEST SUMMARY: cell viability relative to DMSO control; higher = less cytotoxic
# TEST CONDITIONS: HPLM + 10% dialyzed FBS; 48 h; 0.00702 µM
Item-by-item account of cell viability
The reply should be a number in %, with the unit left off.

// known answers, use as guide
O=C(O)c1ccc(-n2nc(-c3ccccc3O)nc2-c2ccccc2O)cc1; 104
O=C1\C=C/C[C@@H]2[C@H]3CCCN4CCC[C@@H](CN12)[C@@H]34; 107
Cc1c(Cn2c(C)nc3c(C(=O)O)cc(N4CCOCC4)cc32)cccc1C(F)(F)F; 107

What does the data say about its cell viability? Entry: "Clc1cc(Cl)cc(CNc2ncncc2-c2ccc3c(c2)OCO3)c1"
92.6

----------
Item-by-item account of cell viability
# System: P12-Ichikawa
# TEST SUMMARY: cell viability relative to DMSO control; higher = less cytotoxic
# TEST CONDITIONS: RPMI 5 mM glucose + 10% dialyzed FBS; 48 h; 0.0211 µM
The reply should be a number in %, with the unit left off.

// known answers, use as guide
Cc1cc(Nc2nc(N[C@@H](C)c3ncc(F)cn3)ncc2Cl)n[nH]1; 117
CO[C@H]1C[C@@H]2CC[C@@H](C)[C@@](O)(O2)C(=O)C(=O)N2CCCC[C@H]2C(=O)O[C@H]([C@H](C)C[C@@H]2CC[C@@H](OC(=O)C(C)(CO)CO)[C@H](OC)C2)CC(=O)[C@H](C)/C=C(\C)[C@@H](O)[C@@H](OC)C(=O)[C@H](C)C[C@H](C)/C=C/C=C/C=C/1C; 92
O=C(NC[C@H]1CN(c2ccc(N3CCOCC3=O)cc2)C(=O)O1)c1ccc(Cl)s1; 125
CCC1(c2ccc(N)cc2)CCC(=O)NC1=O (configuration not stated); 116
CNC1[C@@H](O)C(O[C@@H]2C(O)C(O[C@H]3O[C@H]([C@@H](C)NC)CC[C@H]3N)[C@@H](N)C[C@H]2N)OC[C@]1(C)O (some centres not stated); 93

What does the data say about its cell viability? Entry: "CC(=O)C\1=C(/C)C2=CN=C(NC3=CC=C(C=N3)N4CCNCC4)N=C2N(C5CCCC5)C1=O"
117

Likewise for "Cc1c(Cn2c(C)nc3c(C(=O)O)cc(N4CCOCC4)cc32)cccc1C(F)(F)F" ?
122

----------
# Tested on: P12-Ichikawa
# TEST SUMMARY: cell viability relative to DMSO control; higher = less cytotoxic
# TEST CONDITIONS: RPMI 5 mM glucose + 10% dialyzed FBS; 48 h; 0.0211 µM
READOUT: cell viability (%)
The reply should be a number in %, with the unit left off.

// known answers, use as guide
CN1\C(=C(\O)C2=C(C=CS2)[S+]1([O-])=O)C(=O)NC3=CC=CC=N3; 115
O=C(O)c1ccc(-n2nc(-c3ccccc3O)nc2-c2ccccc2O)cc1; 96.2
CC(C)C[C@H](NC(=O)[C@@H](NC(=O)c1cccc(-c2ccccc2)n1)[C@@H](C)O)B(O)O; 124

What does the data say about its cell viability? Entry: "C[C@@H]1COCCN1C\2=C\C(=O)N\3CC[C@H](N(CC4=CN=CC(=C4)Cl)C3=N2)C(F)(F)F"
98.8

Likewise for "[NH2][Pt]([NH2])([Cl])[Cl]" ?
92

Likewise for "CC[C@H]1/C=C\C=C/C[C@@H](C)[C@H](O)[C@@](C)(O)C(=O)[C@@H](C)[C@H](O)[C@@H](C)C(=O)[C@@H](C)[C@H](O)[C@@H](C)/C=C/C(=O)O[C@@H]2[C@H](C)[C@H](CC1)O[C@]1(CC[C@H](C)[C@H](C[C@@H](C)O)O1)[C@H]2C" ?
89.9

Likewise for "CCC[C@H](N[C@@H](C)C(=O)N1[C@H](C(=O)O)C[C@@H]2CCCC[C@@H]21)C(=O)OCC" ?
111

----------
# System: SEM cells
# TEST SUMMARY: cell viability relative to DMSO control; higher = less cytotoxic
# TEST CONDITIONS: HPLM + 10% dialyzed FBS; 48 h; 0.00234 µM
Item-by-item account of cell viability
The reply should be a number in %, with the unit left off.

Cc1cc(Nc2nc(N[C@@H](C)c3ncc(F)cn3)ncc2Cl)n[nH]1; 97.4
C[C@H]1C[C@H]2[C@@H]3CCC4=CC(=O)C=C[C@]4(C)[C@@]3(F)[C@@H](O)C[C@]2(C)[C@@]1(O)C(=O)CO; 105
Clc1cc(Cl)cc(CNc2ncncc2-c2ccc3c(c2)OCO3)c1; 101
C=CC1=C(C(=O)O)N2C(=O)[C@@H](NC(=O)/C(=N\O)c3csc(N)n3)[C@H]2SC1; 81.9
Cc1cccc(C)c1OCC(=O)N[C@@H](Cc1ccccc1)[C@@H](O)C[C@H](Cc1ccccc1)NC(=O)[C@H](C(C)C)N1CCCNC1=O; 94.2
CCOc1cc(N)c(Cl)cc1C(=O)NCC1CN(Cc2ccc(F)cc2)CCO1 (stereo not drawn); 110
O=C1Nc2cc(Br)ccc2/C1=C1/Nc2ccccc2/C1=N\O; 102
C[C@@H]1COCCN1C\2=C\C(=O)N\3CC[C@H](N(CC4=CN=CC(=C4)Cl)C3=N2)C(F)(F)F; 83.8

Now for the compound whose cell viability we want.
What does the data say about its cell viability? Entry: "CCc1c(C(=O)C(N)=O)c2c(OCC(=O)O)cccc2n1Cc1ccccc1"
93.2

----------
# Test system: SEM cells
# TEST SUMMARY: cell viability relative to DMSO control; higher = less cytotoxic
# TEST CONDITIONS: HPLM + 10% dialyzed FBS; 48 h; 0.000781 µM
Item-by-item account of cell viability
The reply should be a number in %, with the unit left off.

CCCCNc1cc(C(=O)O)cc([S+](N)(=O)[O-])c1Oc1ccccc1; 80.3
O=C1Nc2cc(Br)ccc2/C1=C1/Nc2ccccc2/C1=N\O; 109
CCC(=O)OCC(=O)[C@@]1(OC(=O)CC)[C@@H](C)C[C@H]2[C@@H]3CCC4=CC(=O)C=C[C@]4(C)[C@@]3(F)[C@@H](O)C[C@@]21C; 78.1

Now for the compound whose cell viability we want.
What does the data say about its cell viability? Entry: "CC1=C(C=CC=C1)N2\C(=N/C3=C(C(=CC=C3)C)C2=O)C[N]4N=CC5=C4N=CN=C5N"
99.5

----------
Item-by-item account of cell viability
# Tested on: P12-Ichikawa
# TEST SUMMARY: cell viability relative to DMSO control; higher = less cytotoxic
# TEST CONDITIONS: RPMI 5 mM glucose + 10% dialyzed FBS; 48 h; 0.00234 µM
The reply should be a number in %, with the unit left off.

// known answers, use as guide
CCNC(=O)c1cc2c(-c3cc(OCCN4CCCC4)c(Cl)cc3Cl)nc(N)nc2s1; 96.5
O=C1C[C@@H](c2ccc(O)cc2)Oc2cc(O)cc(O)c21; 120
CCC[C@H](N[C@@H](C)C(=O)N1[C@H](C(=O)O)C[C@@H]2CCCC[C@@H]21)C(=O)OCC; 99
c1cc(CN2CCCNCCNCCCNCC2)ccc1CN1CCCNCCNCCCNCC1; 93.9
C[C@H]1C[C@H]2[C@@H]3CCC4=CC(=O)C=C[C@]4(C)[C@@]3(F)[C@@H](O)C[C@]2(C)[C@@]1(O)C(=O)CO; 119
OC[C@H](Cc1ccccc1)Nc1nc(Oc2ccc3c(c2)CCC3)nc2c1ncn2Cc1ccc(-c2ccccc2)cc1; 88.4
CCOC(=O)[C@H](CCc1ccccc1)N[C@@H](C)C(=O)N1CCC[C@H]1C(=O)O; 111
C1CCC(C(CC2CCCCN2)C2CCCCC2)CC1 (centres undefined); 127

Now for the compound whose cell viability we want.
What does the data say about its cell viability? Entry: "CC(C)n1nc(-c2ccc3oc(N)nc3c2)c2c(N)ncnc21"
78.9

----------
# Tested on: SEM cells
# TEST SUMMARY: cell viability relative to DMSO control; higher = less cytotoxic
# TEST CONDITIONS: HPLM + 10% dialyzed FBS; 48 h; 0.569 µM
Item-by-item account of cell viability

// known answers, use as guide
OC[C@H](Cc1ccccc1)Nc1nc(Oc2ccc3c(c2)CCC3)nc2c1ncn2Cc1ccc(-c2ccccc2)cc1; 105%
CO[C@H]1C[C@@H]2CC[C@@H](C)[C@@](O)(O2)C(=O)C(=O)N2CCCC[C@H]2C(=O)O[C@H]([C@H](C)C[C@@H]2CC[C@@H](OC(=O)C(C)(CO)CO)[C@H](OC)C2)CC(=O)[C@H](C)/C=C(\C)[C@@H](O)[C@@H](OC)C(=O)[C@H](C)C[C@H](C)/C=C/C=C/C=C/1C; 64.7%
Cc1cccc(C#Cc2ccccc2)n1; 137%

What does the data say about its cell viability? Entry: "Oc1ccc(/C=C/c2cc(O)cc(O)c2)cc1"
112%

Likewise for "CC1(C)C(=O)N(CCN2CCC(C(=O)c3ccc(F)cc3)CC2)c2ccccc21" ?
119%

Likewise for "Clc1cc(Cl)cc(CNc2ncncc2-c2ccc3c(c2)OCO3)c1" ?
92.2%

Likewise for "ClC1=CC(=CC=C1)N2CCN(CCCN3\N=C4\C=C/C=C\N4C3=O)CC2" ?
127%

Likewise for "OC[C@H]1O[C@H]([C@@H](F)[C@@H]1O)N2\C=C/C(=O)NC2=O" ?
122%
